# TARGET_ENTITY: T1, 4H1845-bA
# T1 chain: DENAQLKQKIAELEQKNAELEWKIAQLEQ
# TEST_PROTOCOL: two-hybrid library CCNG1;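 also: natural log of median RNA to DNA barcode read ratio; higher means stronger binding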
MEASUREMENT_NAME: interaction score

| BINDER | READOUT_NUMBER |
| --- | --- |
| DENAQLKQKIAELEQKIAELEWENAQLKQ [4H1828-bA] | -0.511 |
| DENAQLEQKIAELKQENAELKWEIAQLEQ [4H1369-bA] | -1.43 |
| DENAQLEQENAELKQKIAELKWEIAQLEQ [4H1257-bA] | -0.799 |
| DENAQLEQKIAELEQKIAELKWKNAQLKQ [4H1328-bA] | -0.257 |
| DENAQLKQKIAELEQKNAELEWKIAQLEQ [4H1845-bA] | 0.564 |
| DENAQLEQKNAELEQKIAELEWKIAQLKQ [4H1446-bA] | -0.389 |
| DENAQLEQENAELEQKIAELKWEIAQLEQ [4H1193-bA] | -0.841 |

Value source: paper PMC10397247
